# TARGET_ENTITY: PLCγ2-HiBit (Homo sapiens)
# Construct: expressed in transfected cells; host or cells: HMC3 cells
# Sequence (P16885 whole entry): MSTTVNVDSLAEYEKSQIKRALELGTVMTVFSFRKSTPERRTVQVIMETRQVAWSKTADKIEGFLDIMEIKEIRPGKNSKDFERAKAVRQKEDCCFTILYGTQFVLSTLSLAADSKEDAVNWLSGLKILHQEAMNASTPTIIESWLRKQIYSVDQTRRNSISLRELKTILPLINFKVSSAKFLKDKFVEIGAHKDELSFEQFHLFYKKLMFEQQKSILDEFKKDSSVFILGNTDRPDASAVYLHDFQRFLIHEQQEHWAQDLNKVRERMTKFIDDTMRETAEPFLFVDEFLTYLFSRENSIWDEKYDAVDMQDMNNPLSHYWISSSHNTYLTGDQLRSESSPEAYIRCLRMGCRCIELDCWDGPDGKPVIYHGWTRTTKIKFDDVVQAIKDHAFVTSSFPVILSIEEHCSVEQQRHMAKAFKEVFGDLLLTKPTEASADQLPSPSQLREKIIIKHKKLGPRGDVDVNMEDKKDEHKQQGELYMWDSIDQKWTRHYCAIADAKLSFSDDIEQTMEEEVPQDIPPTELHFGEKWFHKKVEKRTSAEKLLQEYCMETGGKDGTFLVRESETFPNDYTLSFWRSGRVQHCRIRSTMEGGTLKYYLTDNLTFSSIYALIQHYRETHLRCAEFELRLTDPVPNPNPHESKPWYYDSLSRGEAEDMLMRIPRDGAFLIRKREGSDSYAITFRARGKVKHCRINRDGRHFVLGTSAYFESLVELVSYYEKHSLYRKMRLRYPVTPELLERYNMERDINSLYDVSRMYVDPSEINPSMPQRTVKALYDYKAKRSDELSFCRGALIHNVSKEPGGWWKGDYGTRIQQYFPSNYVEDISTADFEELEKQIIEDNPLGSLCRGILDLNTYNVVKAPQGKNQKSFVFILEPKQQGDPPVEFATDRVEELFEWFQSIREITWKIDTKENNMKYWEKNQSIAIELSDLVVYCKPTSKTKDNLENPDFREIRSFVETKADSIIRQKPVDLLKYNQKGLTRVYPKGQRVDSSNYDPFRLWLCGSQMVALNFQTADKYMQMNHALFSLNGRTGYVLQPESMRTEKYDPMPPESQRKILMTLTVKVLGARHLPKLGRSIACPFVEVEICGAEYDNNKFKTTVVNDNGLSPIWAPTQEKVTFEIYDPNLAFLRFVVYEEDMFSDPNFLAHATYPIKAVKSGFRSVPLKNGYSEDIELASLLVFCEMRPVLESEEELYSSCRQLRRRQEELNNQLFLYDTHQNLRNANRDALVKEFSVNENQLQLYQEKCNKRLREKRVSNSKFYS
# PROTOCOL_DESCRIPTION: Cellular thermal shift assay (SplitLuc CETSA), PLCγ2-HiBit in HMC3 cells
# Format: cell-based
# STATED_CONDITIONS: 100 μM
READOUT_LABEL: PLCγ2-HiBit %, percent luminescence at highest dose compared to control (DMSO) (%)
Numbers only, in %.

Below are worked cases with known answers.
| COMPOUND | QUANTITATIVE_RESULT |
| --- | --- |
| Cc1cc(C)c(S(=O)(=O)Nc2cccc(C(F)F)c2)c(C)c1 | 78 |
| Cc1cc(Br)ccc1S(=O)(=O)Nc1cccc(C(F)(F)F)c1 | 17 |
| Cc1cccc(NS(=O)(=O)c2c(C)cc(C)cc2C)c1 | 54 |

Required: PLCγ2-HiBit %, percent luminescence at highest dose compared to control (DMSO), one value per compound below.
1. Cc1cc(C)c(S(=O)(=O)Nc2cccc(C(F)(F)F)c2)c(C)c1 [Compound 1, reference compound]
2. Cc1cc(C)c(S(=O)(=O)Nc2ccccc2C(F)(F)F)c(C)c1 [Compound 2, o-3M3FBS, reference compound]
3. O=S(=O)(Nc1cccc(C(F)(F)F)c1)c1ccc(Cl)cc1Cl
4. Cc1cc(C)c(S(=O)(=O)NC2CCCNC2)c(C)c1 (stereo not shown)
5. O=S(=O)(Nc1ccc(Br)cc1F)c1cccs1

[reply]
[105, 102, 32, 64, 66]

Required: PLCγ2-HiBit %, percent luminescence at highest dose compared to control (DMSO), one value per compound below.
1. Cc1cc(C)c(S(=O)(=O)Nc2cccc(C#N)c2)c(C)c1
2. O=S(=O)(Nc1cccc(C(F)(F)F)c1)c1ccccc1

[reply]
[96, 65]
